System: LXRa:RXRa (NR concentration 270 nM, RXRa partner concentration 90 nM)
Assay: PBM binding z-score (relative to random genomic background probes); higher = stronger binding; sequences stand for … in GC…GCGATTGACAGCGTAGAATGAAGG
Decision: PBM binding z-score compared against 2; not below it gives Y, below it gives N.

construct_sequence=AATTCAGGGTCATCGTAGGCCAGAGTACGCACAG group_label=Y
construct_sequence=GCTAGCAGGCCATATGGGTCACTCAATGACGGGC group_label=N
construct_sequence=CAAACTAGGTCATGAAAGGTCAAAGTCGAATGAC group_label=Y
construct_sequence=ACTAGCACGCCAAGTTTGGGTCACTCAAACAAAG group_label=N
construct_sequence=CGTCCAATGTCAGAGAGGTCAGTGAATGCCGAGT group_label=Y
construct_sequence=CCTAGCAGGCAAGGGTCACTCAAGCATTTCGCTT group_label=Y
construct_sequence=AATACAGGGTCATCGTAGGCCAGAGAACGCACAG group_label=Y
construct_sequence=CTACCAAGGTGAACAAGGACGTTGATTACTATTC group_label=N
construct_sequence=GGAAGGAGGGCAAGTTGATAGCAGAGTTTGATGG group_label=N
construct_sequence=ATCTCTCGGTAAAGTTCAGTGAAAGATCGATAGA group_label=N
construct_sequence=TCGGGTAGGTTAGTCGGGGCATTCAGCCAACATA group_label=N
construct_sequence=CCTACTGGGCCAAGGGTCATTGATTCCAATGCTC group_label=Y
construct_sequence=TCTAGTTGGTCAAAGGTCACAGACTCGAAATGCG group_label=Y
construct_sequence=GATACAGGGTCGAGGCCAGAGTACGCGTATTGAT group_label=N
construct_sequence=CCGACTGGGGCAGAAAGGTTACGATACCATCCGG group_label=N
construct_sequence=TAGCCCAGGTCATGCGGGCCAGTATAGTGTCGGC group_label=Y
construct_sequence=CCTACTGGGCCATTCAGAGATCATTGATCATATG group_label=N
construct_sequence=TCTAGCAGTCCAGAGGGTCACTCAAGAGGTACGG group_label=N
construct_sequence=CCTAGTAGGCCAATCTGGGTCACTCAAGGCTTGA group_label=N
construct_sequence=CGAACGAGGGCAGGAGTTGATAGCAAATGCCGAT group_label=N
construct_sequence=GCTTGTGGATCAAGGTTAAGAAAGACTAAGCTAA group_label=N
construct_sequence=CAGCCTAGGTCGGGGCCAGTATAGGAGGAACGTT group_label=N
construct_sequence=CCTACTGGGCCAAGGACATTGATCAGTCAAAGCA group_label=N
construct_sequence=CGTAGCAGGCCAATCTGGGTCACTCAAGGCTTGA group_label=N
construct_sequence=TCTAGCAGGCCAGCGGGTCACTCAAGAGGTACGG group_label=N
construct_sequence=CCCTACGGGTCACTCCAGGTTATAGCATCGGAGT group_label=Y
construct_sequence=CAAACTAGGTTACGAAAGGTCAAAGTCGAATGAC group_label=Y
construct_sequence=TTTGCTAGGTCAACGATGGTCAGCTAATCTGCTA group_label=Y
construct_sequence=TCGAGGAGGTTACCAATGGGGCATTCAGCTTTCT group_label=Y
construct_sequence=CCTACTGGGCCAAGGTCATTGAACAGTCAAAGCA group_label=Y
construct_sequence=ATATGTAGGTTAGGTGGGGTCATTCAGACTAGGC group_label=Y
construct_sequence=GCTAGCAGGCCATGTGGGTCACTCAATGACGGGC group_label=N
construct_sequence=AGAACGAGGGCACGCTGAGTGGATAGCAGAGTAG group_label=N
construct_sequence=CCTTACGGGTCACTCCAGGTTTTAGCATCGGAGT group_label=Y
construct_sequence=CCAGACACGTGAGAAGGTAACTCAGCCTCGATTA group_label=N
construct_sequence=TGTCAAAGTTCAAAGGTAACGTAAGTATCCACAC group_label=Y
construct_sequence=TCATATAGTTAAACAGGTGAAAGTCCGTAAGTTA group_label=N
construct_sequence=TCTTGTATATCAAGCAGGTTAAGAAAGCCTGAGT group_label=N
construct_sequence=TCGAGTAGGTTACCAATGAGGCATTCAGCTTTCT group_label=N
construct_sequence=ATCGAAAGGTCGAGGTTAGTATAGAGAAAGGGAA group_label=Y
construct_sequence=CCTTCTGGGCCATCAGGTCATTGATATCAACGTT group_label=N
construct_sequence=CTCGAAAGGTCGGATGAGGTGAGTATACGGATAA group_label=Y
construct_sequence=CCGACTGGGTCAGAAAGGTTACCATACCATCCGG group_label=N
construct_sequence=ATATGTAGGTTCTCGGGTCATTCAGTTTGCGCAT group_label=Y
construct_sequence=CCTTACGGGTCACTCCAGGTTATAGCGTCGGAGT group_label=Y
construct_sequence=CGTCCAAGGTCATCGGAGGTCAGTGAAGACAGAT group_label=Y
construct_sequence=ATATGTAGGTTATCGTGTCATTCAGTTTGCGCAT group_label=N
construct_sequence=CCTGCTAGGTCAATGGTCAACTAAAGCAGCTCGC group_label=Y
construct_sequence=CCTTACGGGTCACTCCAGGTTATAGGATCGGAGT group_label=Y
construct_sequence=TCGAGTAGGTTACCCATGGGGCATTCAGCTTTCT group_label=N
construct_sequence=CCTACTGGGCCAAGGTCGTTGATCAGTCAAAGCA group_label=N

====

System: PPARg DBDmut IVT, anti-PPARg (DBD mutation: PPARg1 K132A/R137A, NR concentration 270 nM)
Assay: PBM binding z-score (relative to random genomic background probes); higher = stronger binding; sequences stand for … in GC…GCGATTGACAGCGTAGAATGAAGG
ENDPOINT_LABEL: PBM binding z-score

construct_sequence=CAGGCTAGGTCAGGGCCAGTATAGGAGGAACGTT obs_value=-1.24
construct_sequence=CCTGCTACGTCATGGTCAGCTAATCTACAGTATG obs_value=-0.835
construct_sequence=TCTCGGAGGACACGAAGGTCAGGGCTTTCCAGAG obs_value=-1.18
construct_sequence=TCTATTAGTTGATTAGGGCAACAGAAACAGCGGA obs_value=1.06
construct_sequence=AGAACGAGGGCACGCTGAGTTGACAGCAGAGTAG obs_value=0.377
construct_sequence=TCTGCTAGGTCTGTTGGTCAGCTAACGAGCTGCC obs_value=0.0841

====

Tested on: PXR:RXRa (NR concentration 270 nM, RXRa partner concentration 90 nM)
Assay: PBM binding z-score (relative to random genomic background probes); higher = stronger binding; sequences stand for … in GC…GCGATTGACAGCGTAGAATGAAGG
Decision: PBM binding z-score compared against 1; not below it gives Criterion met, below it gives Criterion not met.

construct_sequence=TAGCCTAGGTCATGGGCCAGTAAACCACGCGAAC group_label="Criterion met"
construct_sequence=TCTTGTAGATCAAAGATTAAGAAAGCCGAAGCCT group_label="Criterion not met"
construct_sequence=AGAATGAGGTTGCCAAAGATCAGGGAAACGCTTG group_label="Criterion not met"
construct_sequence=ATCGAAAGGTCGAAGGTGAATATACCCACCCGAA group_label="Criterion met"
construct_sequence=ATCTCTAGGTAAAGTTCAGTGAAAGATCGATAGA group_label="Criterion met"
construct_sequence=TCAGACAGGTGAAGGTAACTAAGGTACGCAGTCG group_label="Criterion not met"
construct_sequence=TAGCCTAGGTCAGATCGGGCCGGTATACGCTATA group_label="Criterion not met"
construct_sequence=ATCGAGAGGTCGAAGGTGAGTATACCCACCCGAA group_label="Criterion met"
construct_sequence=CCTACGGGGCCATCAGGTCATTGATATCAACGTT group_label="Criterion met"
construct_sequence=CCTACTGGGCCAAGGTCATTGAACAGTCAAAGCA group_label="Criterion met"
construct_sequence=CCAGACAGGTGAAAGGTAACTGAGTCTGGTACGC group_label="Criterion not met"
construct_sequence=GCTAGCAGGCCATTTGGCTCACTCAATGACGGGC group_label="Criterion not met"
construct_sequence=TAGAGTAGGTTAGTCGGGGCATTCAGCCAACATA group_label="Criterion not met"
construct_sequence=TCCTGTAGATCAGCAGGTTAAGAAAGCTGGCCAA group_label="Criterion not met"
construct_sequence=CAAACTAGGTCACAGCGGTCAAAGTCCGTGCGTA group_label="Criterion met"
construct_sequence=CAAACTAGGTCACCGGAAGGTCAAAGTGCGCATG group_label="Criterion met"
construct_sequence=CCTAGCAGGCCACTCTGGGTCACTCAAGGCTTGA group_label="Criterion met"
construct_sequence=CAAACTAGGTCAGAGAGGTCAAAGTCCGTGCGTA group_label="Criterion met"
construct_sequence=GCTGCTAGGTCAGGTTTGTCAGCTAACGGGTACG group_label="Criterion not met"
construct_sequence=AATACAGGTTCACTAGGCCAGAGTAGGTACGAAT group_label="Criterion met"
construct_sequence=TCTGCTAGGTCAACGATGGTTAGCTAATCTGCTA group_label="Criterion met"
construct_sequence=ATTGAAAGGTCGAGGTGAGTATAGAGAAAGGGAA group_label="Criterion met"
construct_sequence=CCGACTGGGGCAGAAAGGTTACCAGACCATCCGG group_label="Criterion not met"
construct_sequence=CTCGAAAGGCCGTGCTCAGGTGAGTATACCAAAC group_label="Criterion not met"
construct_sequence=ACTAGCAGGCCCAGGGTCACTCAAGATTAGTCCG group_label="Criterion met"
construct_sequence=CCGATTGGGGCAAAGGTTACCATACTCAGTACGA group_label="Criterion met"
